Target: AR protein (Homo sapiens)
Construct: endogenous in cells; host or cells: VCaP
Sequence (P10275 whole entry): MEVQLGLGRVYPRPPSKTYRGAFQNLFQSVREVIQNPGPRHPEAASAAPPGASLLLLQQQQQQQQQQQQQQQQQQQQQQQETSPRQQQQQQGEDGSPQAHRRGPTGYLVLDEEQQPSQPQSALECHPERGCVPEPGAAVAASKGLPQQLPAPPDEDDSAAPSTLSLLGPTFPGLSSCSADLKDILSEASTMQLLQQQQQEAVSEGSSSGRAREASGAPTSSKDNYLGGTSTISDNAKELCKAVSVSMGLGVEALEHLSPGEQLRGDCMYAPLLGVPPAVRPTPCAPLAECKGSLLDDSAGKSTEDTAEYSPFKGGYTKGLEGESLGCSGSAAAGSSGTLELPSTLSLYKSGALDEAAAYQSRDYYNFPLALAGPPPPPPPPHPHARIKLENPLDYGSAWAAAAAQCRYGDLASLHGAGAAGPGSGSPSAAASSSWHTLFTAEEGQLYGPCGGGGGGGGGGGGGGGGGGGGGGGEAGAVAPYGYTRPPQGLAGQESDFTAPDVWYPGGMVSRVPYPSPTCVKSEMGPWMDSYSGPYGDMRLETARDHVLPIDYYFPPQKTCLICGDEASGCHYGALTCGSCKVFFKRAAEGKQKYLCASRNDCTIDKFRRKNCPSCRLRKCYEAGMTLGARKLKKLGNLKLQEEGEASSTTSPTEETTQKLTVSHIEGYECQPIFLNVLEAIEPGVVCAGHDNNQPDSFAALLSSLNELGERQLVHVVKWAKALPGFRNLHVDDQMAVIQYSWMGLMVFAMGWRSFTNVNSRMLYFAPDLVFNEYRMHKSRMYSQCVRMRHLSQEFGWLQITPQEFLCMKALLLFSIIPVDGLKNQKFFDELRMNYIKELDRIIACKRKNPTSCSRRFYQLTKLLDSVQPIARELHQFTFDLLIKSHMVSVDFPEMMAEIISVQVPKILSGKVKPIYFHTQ
Assay: Western blotting of AR protein degradation in VCaP cells
Assay type: cell-based
Conditions: 0.01 μM
Procedure: The treated cells were lysed with RIPA buffer. […] GAPDH was used as a loading control. Bands were quantified with ImageJ software. The relative numbers of each band obtained from normalization with its corresponding GAPDH level were compared with Prism 8 software. The DC50 values were produced from Prism 8, and the DC90 values were calculated with an equation=Bottom+(Top−Bottom)/(1+10^((Log EC50−X)*HillSlope) based on DC50 and Hillslope values.
reported.metric: % AR protein degradation in VCaP Cells (%)

INSERT INTO results (compound, quantitative_result) VALUES
  ('CN(c1ccc(C#N)c(Cl)c1)[C@H]1CC[C@H](NC(=O)c2ccc(N3CCC(CN4CCN(c5ccc6c(c5)C(=O)N(C5CCC(=O)NC5=O)C6=O)CC4)CC3)cc2)CC1 (stereo partly drawn) [compound 234]', 91),
  ('N#Cc1ccc(O[C@H]2CC[C@H](NC(=O)c3ccc(N4CCC(N5CCN(c6ccc7c(c6)C(=O)N(C6CCC(=O)NC6=O)C7=O)CC5)CC4)cc3)CC2)cc1Cl (stereo partly drawn) [compound 223]', 91),
  ('N#Cc1ccc(O[C@H]2CC[C@H](NC(=O)c3ccc(NCCCCCCNc4ccc5c(c4)C(=O)N(C4CCC(=O)NC4=O)C5=O)cc3)CC2)cc1Cl (stereo partly drawn) [compound 212]', 70);

These measurements were taken from patent US20230233690A1.
